target: human IL-1RAcP on cells (human, UniProt Q9NPH3 21-570); assay: cell-based or functional assay
Each record here notes measured IC50, IL-8 release, HDFa stimulated with IL-36α.
A complete answer gives the number followed by the unit.

Some entries whose results are on file:
1. h11C5 YKD (antibody, human IgG1, kappa, V domains shown, Variable domains of h11C5 YKD on the same modified IgG1 kappa constant regions (AEASS); Printed as 'h1105' in much of the text; also called h1105) VH: EVQLVESGGGLVQPGGSLRLSCAASGFTFSNYAMSWVRQAPGKGLEWVATVTEGGDYNYYLDDVKGRFTISRDNAKNSLYLQMNSLRAEDTAVYYCARDDWPYFFDYWGQGTLVTVSS VL: DIQMTQSPSSLSASVGDRVTITCRASENIYSNLAWYQQKPGKSPKLLVYGYKNLADVPSRFSGSGSGTDYTLTISSLQPEDFATYYCQHFKTTPRTFGGGTKVEIKR ... 180 pM
2. Y024148_h_IgG1f_AEASS (antibody, V domains shown, Human IgG1f with AEASS effector-silencing residues, kappa light chain) VH: EVQLVESGGGLVQPGGSLRLSCAASGGTIGGSAVHWVRQAPGKGLVWVSRILTYSSTTQYAESVKGRFTISRDNAKNTLYLQMNSLRAEDTAVYYCARGSSEYPKFDIWGQGTLVTVSS VL: DIQMTQSPSTLSASVGDRVTITCRASQSISSWLAWYQQKPGKAPKLLIYDASSLESGVPSRFSGSGSGTEFTLTISSLQPEDFATYYCHQLLIYPHTFGQGTKVEIKR ... 14 pM

Pending binder:
Query string: Which measured IC50, IL-8 release, HDFa stimulated with IL-36α value corresponds to Y024149_h_IgG1f_AEASS (antibody, V domains shown, Human IgG1f with AEASS effector-silencing residues, kappa light chain) VH: EVQLVESGGGLVQPGGSLRLSCAASGGTFGGSAMHWVRQAPGKGLVWVSRILTYGGIATYAESVKGRFTISRDNAKNTLYLQMNSLRAEDTAVYYCARGSSEYPKFDIWGQGTLVTVSS VL: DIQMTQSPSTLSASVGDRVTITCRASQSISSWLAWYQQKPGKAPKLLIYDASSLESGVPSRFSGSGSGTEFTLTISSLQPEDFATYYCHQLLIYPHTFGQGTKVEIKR ?
Result string: 39 pM
